- Target under test: ScBbc1
- Assay comment: SPOT peptide array binding signal intensity (averaged, normalized) (arbitrary units (background-subtracted, floor 0; scale differs between SH3 domains)); higher = stronger binding of the SH3 domain to the peptide
Experimental readout: SPOT peptide array binding signal intensity

binder=LSKRLPLRFPEHTSS censoring_sign=≤ recorded_measurement=0
binder=NSVPIMPTLPPRPYI censoring_sign== recorded_measurement=128
binder=NNQRRKPLLLNIGDH censoring_sign=≤ recorded_measurement=0
binder=QDKEGIPPDQQRLIF censoring_sign=≤ recorded_measurement=0
binder=LLLLFVPDSPYDPAI censoring_sign== recorded_measurement=0.25
binder=YVRRRPRVRLEPLLS censoring_sign== recorded_measurement=24.8
binder=PPLPRAPPVPPATFE censoring_sign=≤ recorded_measurement=0
